List of %Inh values.
- Tested on: BMPR1B;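 further: KINOMEscan kinase panel screen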
- Applied Conditions: concentration: 1 μM, replicates: in singlicate; n = 1
Express it in %; write the number only.

Examples with their reported %Inh follow.
[
  {
    "Compound": "COc1cc2c(cc1OCCN1CCNCC1)ncc1c3ccc(C#N)cc3[nH]c21",
    "Measured Parameter": "%Inh",
    "Recorded Measurement": 22
  },
  {
    "Compound": "CCn1c(-c2nonc2N)nc2c(C#CC(C)(C)O)nc(OC[C@H](N)c3ccccc3)cc21",
    "Measured Parameter": "%Inh",
    "Recorded Measurement": 9
  },
  {
    "Compound": "Oc1cc(Nc2ccnc3cc(I)ccc23)ccc1F",
    "Measured Parameter": "%Inh",
    "Recorded Measurement": 99.9
  },
  {
    "Compound": "Cl.c1ccc(-c2ccc3c(Nc4ccc5[nH]ncc5c4)ccnc3c2)nc1",
    "Measured Parameter": "%Inh",
    "Recorded Measurement": 31
  },
  {
    "Compound": "NCCCC(NC(=O)c1cc(Br)c(-c2ccnc3[nH]ccc23)s1)c1ccccc1.O=C(O)C(F)(F)F.O=C(O)C(F)(F)F (stereo not shown)",
    "Measured Parameter": "%Inh",
    "Recorded Measurement": 0
  }
]

Problem: Item Cc1ccc(C(=O)Nc2ccc(Nc3ccnc4cc(-c5nccs5)ccc34)cc2O)cc1.Cl with BMPR1B - %Inh?
Result: 0

Problem: Ok, now CC(=O)N1CCN(c2ccc(Nc3nccc(-c4sc(C(C)C)nc4-c4cccc(NS(=O)(=O)c5cccc(Cl)c5)c4)n3)cn2)CC1
Result: 97.1

Problem: Ok, now COc1cccc(C2=C(Nc3ccc(Cl)c(C(=O)O)c3)C(=O)NC2=O)c1
Result: 0

Problem: Ok, now Clc1ccc(-c2nn3ncccc3c2-c2ccnc(Nc3ccc4c(c3)OCCO4)n2)cc1
Result: 0

Problem: Ok, now O=C(Nc1cccc(-c2nn3ccccc3c2-c2ccnc(Nc3cccc(F)c3)n2)c1)c1c(F)ccc(F)c1Cl
Result: 0

Problem: Ok, now c1ccc(-c2cnc3nccnn23)cc1
Result: 0

Problem: Ok, now CC(C)c1nc(-c2cccc(NS(=O)(=O)c3c(F)cccc3F)c2F)c(-c2ccnc(Nc3ccc(N4CCOCC4)nc3)n2)s1
Result: 98.5

Problem: Ok, now CCc1ccc(-c2ccc3c(c2)-c2c(cnn2C)S(=O)(=O)N3C)cc1
Result: 0
